Hello, the source for this data is patent US10550120B2, in case you need it.

# Test system: IL-10
# assay_details: Measurement of human IL-10 amount in culture supernatant of MT2 cells with ELISA kit (Test 1)
# Assay type: cell-based
# test_context: 10 μmol/L, 48±2 hours
Decision: IL-10 (ng/10^6 cells) ± standard deviate (n = 3) >= 10 ng/10^6 cells yields 1 (yes), all other cases yield 0 (no).

Reference set (4 entries):
compound | assigned_class
COC(=O)C1=CN(CCc2c[nH]c3ccccc23)C=C2[C@@H]1CC(OC)O[C@H]2C (some centres unmarked) | 1 (yes)
CC1C(C=O)=C2CCOC(=O)C2=CN1CCc1c[nH]c2ccccc12 (centres unmarked) | 1 (yes)
COC(=O)C1=CN(CCc2c[nH]c3ccccc23)C(O)[C@H]2[C@@H]1C=CC2(O)CO (some centres unmarked) | 1 (yes)
COC(=O)C1=CN2CCc3c([nH]c4ccccc34)[C@@H]2[C@@]2(O)C(CO)=CC[C@H]12 | 1 (yes)

Query block: Say whether `COC(=O)C1=CN2CCc3c([nH]c4ccccc34)[C@H]2[C@@H]2C(CO)=CC[C@H]12` shows IL-10 (ng/10^6 cells) ± standard deviate (n = 3) of 10 ng/10^6 cells or more.
Result block: 0 (no)

----------
# Tested on: CTLA-4
# assay_details: Intracellular staining of MT2 cells with fluorescence-labeled anti-CTLA-4 antibody and measurement by flow cytometry
# Format: cell-based, human
# test_context: Homo sapiens, 48 h, 25.0 μmol/L, 48±2 hours, DMSO control = 100%, read-out: % against control (CTLA-4 expression)
Overview of recorded activity at 25 µM for various compounds
I only need the number, in %, no unit after it.

Here is how some compounds turned out for activity at 25 µM.
compound | activity at 25 µM, %
COC(=O)C1=CN2CCc3c([nH]c4ccc(O)cc34)[C@@H]2[C@@H]2[C@@H](C)[C@@H](O)C[C@H]12 [Compound 16] | 70.3
COC(=O)C1=CN2CCc3c([nH]c4ccc(OC)cc34)[C@@H]2[C@@H]2[C@@H](C)[C@@H](O)C[C@H]12 [Compound 10] | 56.3
COC(=O)C1=CN2CCc3c([nH]c4ccc(Cl)cc34)[C@@H]2[C@@H]2[C@@H](C)[C@@H](O)C[C@H]12 [Compound 12] | 57.2
COC(=O)C1=CN2CCc3c([nH]c4ccc(Br)cc34)[C@@H]2[C@@H]2[C@@H](C)[C@@H](O)C[C@H]12 [Compound 13] | 91.6
COC(=O)C1=CN2CCc3c([nH]c4c(F)cccc34)[C@@H]2[C@@H]2[C@@H](C)[C@@H](O)C[C@H]12 [Compound 17] | 45
COC(=O)C1=CN2CCc3c([nH]c4ccc(C)cc34)[C@@H]2[C@@H]2[C@@H](C)[C@@H](O)C[C@H]12 [Compound 14] | 53
COC(=O)C1=CN2CCc3c([nH]c4cc(Cl)ccc34)[C@@H]2[C@@H]2[C@@H](C)[C@@H](O)C[C@H]12 [Compound 9] | 52.8
COC(=O)C1=CN2CCc3c([nH]c4cc(OC)ccc34)[C@@H]2[C@@H]2[C@@H](C)[C@@H](O)C[C@H]12 [Compound 8] | 50

Input COC(=O)C1=CN2CCc3c([nH]c4ccc(OCc5ccccc5)cc34)[C@@H]2[C@@H]2[C@@H](C)[C@@H](O)C[C@H]12 [Compound 15] . Output activity at 25 µM: 37.7

Input COC(=O)C1=CN2CCc3c([nH]c4c(C)cccc34)[C@@H]2[C@@H]2[C@@H](C)[C@@H](O)C[C@H]12 [Compound 11] . Output activity at 25 µM: 59.5
